Provide the recorded Geometric Mean for the entries that follow.
Molecular target: T1, human CD84 on the cell surface (human, UniProt Q9UIB8 22-345)
T1 construct: whole, on cells; also called Cluster of Differentiation 84
T1 sequence (looked up): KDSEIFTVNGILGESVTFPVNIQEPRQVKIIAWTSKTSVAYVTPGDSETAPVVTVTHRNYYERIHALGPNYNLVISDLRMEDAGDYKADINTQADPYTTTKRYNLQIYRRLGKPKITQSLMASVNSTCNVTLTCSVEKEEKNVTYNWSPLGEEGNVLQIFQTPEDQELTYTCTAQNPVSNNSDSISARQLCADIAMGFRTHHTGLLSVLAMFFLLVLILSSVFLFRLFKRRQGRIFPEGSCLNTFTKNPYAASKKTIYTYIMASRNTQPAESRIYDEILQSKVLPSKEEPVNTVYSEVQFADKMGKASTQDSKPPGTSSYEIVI
Assay: flow cytometry, hybridoma supernatant on NS0 cells expressing human CD84
Number, no unit, nothing else.

Supply Geometric Mean value. Item: anti-CD84 hybridoma clone 8A5 (antibody, V domains shown) VH: QIQLVQSGPELKKPGETVKISCKASGYTFTTYSMHWVKQAPGKGLKWMGWIDTATGEPTYADDFKGRFAFSLETSASTAYLQINNLNNDDTATYFCVKSAYWYFDVWGAGTTVTVSS VL: DVLMTQTPLSLPVSLGDQASISCRSSQSIVHINGNTYLEWYLQKPGQSPKLLIYKVSNRFSGVPDRFSGSGSGTDFTLKISRVEAEDLGVYYCFQGSHVPWTFGGGTKLEIK
1810

Supply Geometric Mean value. Item: anti-CD84 hybridoma clone 13D11 (antibody, V domains shown) VH: QVTLKESGPGLLQPSQTLSLTCSFSGFSLNTSNMGVGWIRQPSGKDLEWLAHIWWDDVKRYNPALKSRLTISKDTSNNQVFLKIASVDTADTATYYCARMRGDYTMDYWGQGTSVTVSS VL: DIVLTQSPASLAVSLGQRATLSCRASQSVSTSLYSYMHWYQQKPGQPPKLLIKYASDLESGVPARFSGSGSGTDFTLHIHPVEEEDTATYYCQHSWEIPYTFGGGTKLEIK
2120
